Data provenance: PubChem BioAssay (NCI)

system: PC-3 prostate; experiment: NCI tumour cell line growth inhibition, 48 h
property_measured: GI50

Please review the following examples before continuing.
1. NCCn1c(=O)[nH]c(=O)[nH]c1=S	> 100000 nM
2. COc1ccc(/C=C2\CCCC3=C2N=C2SC(C)=NN2C3c2ccc(OC)c(OC)c2)cc1OC (stereo not given)	25800 nM
3. O=C(O)/C=C\C(=O)N1C/C(=C\c2ccccc2Cl)C(=O)/C(=C/c2ccccc2Cl)C1	3560 nM
4. COc1ccc(-c2nn3c(-c4cc(F)c(Cl)cc4Cl)nnc3s2)cc1	34100 nM
5. COc1ccc(-c2csc(N(C(=O)N3CCN(c4cc5c(cc4F)c(=O)c(C(=O)O)cn5C4CC4)CC3)c3ccccc3)n2)cc1	2770 nM

Prompt: Supply reported GI50 belonging to this molecule: OC(c1cc(-c2ccccc2)nc2ccc(Cl)cc12)C1CCCCN1 (stereo not given)
Response: 2210 nM

Prompt: Supply reported GI50 belonging to this molecule: Cc1ccccc1[P+](Cc1ccccc1)(c1ccccc1)c1ccccc1
Response: 1450 nM

Prompt: Supply reported GI50 belonging to this molecule: CCN(CC)CC(C)Nc1ccc([N+](=O)[O-])c2sc3ccccc3c(=O)c12 (stereo not given)
Response: 2520 nM

Prompt: Supply reported GI50 belonging to this molecule: COc1ccc(-c2ccc(/C=N/n3c(COc4ccc(Cl)cc4Cl)nn(CN4CCOCC4)c3=S)o2)c([N+](=O)[O-])c1
Response: 18600 nM

Prompt: Supply reported GI50 belonging to this molecule: O=c1cc(-c2ccccc2)[nH]c2ccccc12
Response: 403 nM
